test: amyloid nucleation score (Sup35N fusion, yeast selection) (log enrichment); library NNK2; higher = more nucleation; inactive = no reads after selection;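 further: zero at mode of non-aggregating sequences after 7 days selection at 30°C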
Grouping by measured amyloid nucleation score is done with the following cut points: low (below 0.4), middle (0.4 to below 4), high (4 or more)

FRVWSFFLNF middle
MLRFFCADWCSLGVCFTLGV low
SNSVCACCKCWLGLSLPYQG high
MSFFYDMEEWRMCLRLARYR middle
MTLIAVDSLSYLWANDNRRG low
QDEHIMVIVKLRRYTFNWEL middle
PFLAFRGVWNFGL high
QVALGNVCNRLYTLMARQAN low

----------
test: amyloid nucleation score (Sup35N fusion, yeast selection) (log enrichment); library NNK1; higher = more nucleation; inactive = no reads after selection
experimental-endpoint: amyloid nucleation score

ACYRATNMSCRRGHKLAGGF inactive
GLRVLFGLLGVCPCRDSQWG inactive
LVVSWKLVPSSSTYCGTMSL inactive

----------
amyloid nucleation score reference
experiment: amyloid nucleation score (Sup35N fusion, yeast selection) (log enrichment); library NNK2; higher = more nucleation; inactive = no reads after selection
experimental-endpoint: amyloid nucleation score

VATLRSRHFDEHSHVVFSSS 0.236
DRGRSNWFRMMWIDGEHYSE -0.492
EGQSGAILGLMRGTSWVESA 0.984
CSMVNDLSFNIEARMQSWNS 0.028
TVAMSGASQYDEYVSESMMT 0.061
RKATQIPMSVSMER 1.45
GSTKFSRDERIAEGGNRGNK -0.007
IYPLWLMKSGIRLLCGKMCL 0.607
NRSIVYGYFQLYENFNWPFS 0.913
TYHIYFVCLKSLWRFGEDCL 4.37
NRHPRRYRNNAGDDSLMRIL 1.74
IMSFKFENC 1.78
YNLFYELNLVLIP 6.14
SYSVQAALVCVFGGCNHVGS 9.38
SMISWATMVSRRDYLYMCV -0.216
KFLHKQVFNFHVSGMNPMAS 5.75
RVDVLIE 9.82
LRLLISV 0.306
GYTRNHSLCFFFRMLYM -1.29
YNQTVCDFLGKRLWGDVWRS 0.26
FILVYTRPTLESLGEWWIRC -0.628
VFVEVDVTGFNFRLE -1.18
PFTMSVFKSYKIAQRSSWAW 2.5
GRDNYSWCSRVEPCKRNGAL 0.103
PCWCSVLVL 1.51
YDANLRLYSYSRTQLFSSWS 3.83
SVNYFLRGHKPRVNVVPSVE 5.12
GLFCSLLCLVGAVSEKT 5.26
RFVVSEGLIGVVGSSKLILY 0.106

----------
assay: amyloid nucleation score (Sup35N fusion, yeast selection) (log enrichment); library NNK1; higher = more nucleation; inactive = no reads after selection
experimental-endpoint: amyloid nucleation score

SNFFVRFNTVTNFSMWDEYY inactive
ICHCGRHAVHRRHTCHWTLG inactive
IEWVPTT inactive
GPDNVCCGSRPKISDVGYGM inactive

----------
test: amyloid nucleation score (Sup35N fusion, yeast selection) (log enrichment); library NNK1; higher = more nucleation; inactive = no reads after selection
experimental-endpoint: amyloid nucleation score

CIMPMIGKYVGVFSSGSSIS inactive
VMDQLIV inactive
YIRIMLGMMPNLRERSRTRV inactive

----------
test: amyloid nucleation score (Sup35N fusion, yeast selection) (log enrichment); library NNK2; higher = more nucleation; inactive = no reads after selection
experimental-endpoint: amyloid nucleation score

SGYMAHVLVFLSEGISVPC inactive
YCCFMSRHGSKWHYVNICIF inactive
LVVSIIRGYLFPCGDPIFLW inactive
TFMRKCIFMFLFVIFSFYSS 2.03
LQVAARHHL inactive
LFDGARINTVNECVYWNS inactive
SLSFLKSGPLA inactive

----------
assay: amyloid nucleation score (Sup35N fusion, yeast selection) (log enrichment); library NNK2; higher = more nucleation; inactive = no reads after selection
Parameter threshold = 0.7. Response is Criterion met when amyloid nucleation score meets or exceeds it, else Criterion not met.

YNYASYLVHIALLFLSYIRR Criterion not met
RIFTFLSVSHPN Criterion met
FQCLVFLLIGRFGVRHWT Criterion not met
VNAPGTSYGYYVLNVQWGGW Criterion met

----------
experiment: amyloid nucleation score (Sup35N fusion, yeast selection) (log enrichment); library NNK2; higher = more nucleation; inactive = no reads after selection
experimental-endpoint: amyloid nucleation score

NPTWVRCYWHFWFTVNGFQY -1.17
NYGVFTSIHVCYDVINVVRV -0.661
HGVLVIVRAYVHVGEWVAQL 1.96
CSFSYGMYSK 0.401

----------
assay: amyloid nucleation score (Sup35N fusion, yeast selection) (log enrichment); library NNK2; higher = more nucleation; inactive = no reads after selection
amyloid nucleation score reference
experimental-endpoint: amyloid nucleation score

SRCLSSITVLTCNHMSVKAC 0.224
YSNANGRTRVWGPRERKKDQ -0.004
RCMFDIYFVLVTCEQWCCLV 0.099

----------
test: amyloid nucleation score (Sup35N fusion, yeast selection) (log enrichment); library NNK1; higher = more nucleation; inactive = no reads after selection
experimental-endpoint: amyloid nucleation score

LAHWHFNWSRILQCFYW 3.08
CVWNYCAWFTVARNTTLFNN -0.508
VVLTYSWGAYRY 1.26
GPWAGVRVRSTCLVRYSWYG 0.242
SPRLAGMVSMVDKCRRASGR 0.097
QFDVVMMWQTE -0.189
CLFNQKGMFTSGCKVYLTLV -0.152
YSLSPTKLGFSERLDSNEVV 0.225
LCLSSWGLTLSLLIDCIYNR -0.53
TFQGARYYYWPAVF 1.33
EWTSAWW -0.355
FGDSFLSYGHMLIFFWYMTM 1.21
GLCNGCIFWRVKRIKGLKWF -0.381
VHEMNSRTDFYKIKKSGTLV 0.158
NWRFGLYSHIGIWLMVKS 1.86
FYGMDLSVSRFF 0.031
KICTYSRFC 0.848
GILMVELWSRR 2.56
TTFFYYSEGKIR -0.657
HSGNTLIQMCVI -0.083
ALCLKGSMNVEFMIRTSGFN 0.705
TSASVGLVMWTTWMRNQG 3.75
YFDWTRVGYNYGSILLPVEA 0.135
VRRCFFVYSVR -0.979
NRFNRYNVFPVYDQNLESPL 0.205
SNSVRNRRIFKKSTVRH -0.055
TELSEHVRSRLWSKG 0.355
HNVLRSHTSRYRYVM 0.226

----------
test: amyloid nucleation score (Sup35N fusion, yeast selection) (log enrichment); library NNK2; higher = more nucleation; inactive = no reads after selection
experimental-endpoint: amyloid nucleation score

VFDSPLHQWFYIKLIMLSTL inactive
ITSLCYNVREFFWGRYVSRV inactive
HSLCLVVLGFML 5.43
ASCVVRGQYAQMVYCWRTLG -0.072
LVDFNVLYNAGIIRLHTERY 8.05
DKYFLLAYGVWGSLRFLTLC -0.288
MENLRNMAYSNC -1.66
ECRMRLVFHRSIGYTTQCFV 3.37
GPDLESFLRVIMQNFHDTKK -1.54
GLNYIARMSQN 0.392
FVNFMGWTMSNINNVYFGHK 7.3
IRNILWVLPKVVSDAFI 0.325
SSKLLYM -0.059
HTDSLLWIPRVHFCVFF inactive
TNLCVPFVYEHFGCYGYN 3.83
FSSLRILTERENFHLVSGVH -1

----------
test: amyloid nucleation score (Sup35N fusion, yeast selection) (log enrichment); library NNK3; higher = more nucleation; inactive = no reads after selection
experimental-endpoint: amyloid nucleation score

LYLNEYELTLEAKRDYMNMR inactive
WKPGRYSTKAPQLEVPERHV inactive
VRYVNGSKCTFNLS inactive
QSSLLSTVNGVFKSDTRVRV inactive
VFAARAKRY inactive
SAVSTRW inactive
SLLDGTYYNTI inactive
YAVCSSLKYLIVESSKLTSV 0.038
KRCRFVVIFKSGIVTLWKLF 0.568
CNCVAKDKVMLHVSRRRADF 0.201
DDDRGGSTMTATHRRRMWHL inactive
AVTCVDSWMRDTG inactive
TTMWFLWEVSGYCHKCN inactive
MHAMNVMAGVRLALVYVRSN inactive
SVPDTLSDFISCPVNCTFLN inactive
LDSAYRTVDGSICTTSYREH inactive
RMNMCMWLAWDSPWYIMGY inactive
SEAMFSIVLKECNGGACR inactive
MILLLGLDRKHSSGESKALI inactive
TLMGLESVSVYFSMGFLSVY inactive
AGWCYFASSVLVRTSWSQCA inactive
TVTCANSCLCRLSRMSCVVL inactive
QDNVKVVGAVGFYDILNGVE inactive
SYILRLSHFITVGLFWAEMQ inactive
HYRIESTVLE -0.772
LIFLTMVSLLFGDQRRSGVQ 0.221
EVLNCSR inactive
CDSYKVYRVLNKQGWFCRGS inactive
SMFMLCVSADGEFFNCGTNH inactive
ARVLDAWSYRVARKNLWESL inactive
LVVSVRTYPTGCCPYKMLNQ inactive
SMSMDAYPQPPLNAMVLVSH inactive
GVSVMSGQAMYVRKRSALEM inactive
VKMSWHHHCLFLICLCTSYE 0.606
VNYRTQRRTQYTQCTRKVGG inactive
EFWQFDRYVLSNTVSLFSGC inactive
ISCGGLNQ inactive
PCFEFSTSVRVFSDAKGLSV 0.234
FVVGHENNFLKFANSLSRL inactive
HEGPKKEGLLAYVKVKRLRR inactive
VFLNQCLSGVMGLEGVSLDR inactive
AYKAAYAVWCVIINGGLF inactive
LISMYHHCSGHLVAQDTVSV inactive
CEYAYFGMDYLLEAGSKSDY inactive
VLCNYGCGIDFAV 0.181
VIYLKTRWNSWCPAGGVLLC inactive
VKDSLMGCKIPCN inactive
TPNARSNPSNRPVSSTRARS inactive
LLHPYARVDMRVQ inactive
YMRLGRWWSFKAVDGRRLKW -0.373
GAMLRVGV inactive
PVHSMASQLPYNNNTTKCLV inactive
